# targetOrTestSystem: T1, full-length human GIPR (GenBank NM_000164) with an N-terminal FLAG tag on HEK-293T cells (human), P48546
# T1 chain: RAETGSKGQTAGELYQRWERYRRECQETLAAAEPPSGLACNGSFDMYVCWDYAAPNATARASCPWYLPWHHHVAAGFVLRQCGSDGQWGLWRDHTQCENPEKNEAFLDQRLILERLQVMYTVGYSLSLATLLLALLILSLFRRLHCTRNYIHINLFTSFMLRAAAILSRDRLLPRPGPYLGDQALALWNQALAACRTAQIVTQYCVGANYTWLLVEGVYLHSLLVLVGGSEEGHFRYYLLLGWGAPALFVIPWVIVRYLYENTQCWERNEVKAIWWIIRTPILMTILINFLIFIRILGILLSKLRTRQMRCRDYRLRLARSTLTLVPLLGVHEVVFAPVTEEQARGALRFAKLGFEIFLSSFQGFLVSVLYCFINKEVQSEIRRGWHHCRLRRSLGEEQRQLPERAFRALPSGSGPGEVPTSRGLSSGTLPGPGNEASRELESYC
# experimentDescription: cell-based or functional assay
Numbered stars: 1 amine (or outer) side, 2 acyl side, 3 side chain; on linkers, the order of the positions; unused ones are H or OH. Square brackets hold non-standard residues; d marks the D form. Primed or numbered codes have the meaning given here. Side chains are listed from the residue outwards. Ends that are not written are not given here. * marks the point of attachment. C20 diacid = O=C(O)CCCCCCCCCCCCCCCCCCC(=O)*; C18 diacid = O=C(O)CCCCCCCCCCCCCCCCC(=O)*; γGlu = O=C(O)[C@H](CCC(=O)[*:2])N[*:1]; Iva = CC[C@](C)(N)C(=O)O; PEG3′ = not defined here; Aib = CC(C)(N)C(=O)O
Parameter: GIP EC50(pM). Scope: all listed entries.
Write down the numeric answer in pM and omit the unit.

Below are worked cases with known answers.
binder="Y[Aib]EGTFISDYSIALDR[Aib]HQ[Aib]NFVNW[Iva]LAQRPK([PEG3′-PEG3′-γGlu-C20 diacid])SGAPPPS (ends and bridges not checked) [Compound No. 490]" resultvalue=1.88
binder="Y[Aib]EGTFISDYSIALDR[Aib]HQ[Aib]NFVNW[Iva]LAQRPSSGAPPK([PEG3′-PEG3′-C18 diacid])SR (ends and bridges not checked) [Compound No 934]" resultvalue=0.6
binder="Y[Aib]EGTFISDYSIALDR[Aib]HQ[Aib]NFVNW[Iva]LAQRPSSGAPK([PEG3′-PEG3′-C20 diacid])PSR (ends and bridges not checked) [Compound No 929]" resultvalue=1.8

Attention now turns to another entry.
Form field GIP EC50(pM), entry Y[Aib]EGTFISDYSIALDR[Aib]HQ[Aib]NFVNW[Iva]LAQRPSSGAPPPK([PEG3′-γGlu-C18 diacid]) (ends and bridges not checked) [Compound No. 534] : 0.81
